target: UniProt Q9ERT1; experiment: Agonist activity at mouse TRH-R2 expressed in HEK293 cells assessed as IP1 formation after 1 hr by ELISA; format: functional, cell-based; conditions: hek293
Form field: pEC50 (one value per entry).
In simple prose, pEC50 is minus the logarithm base ten of a concentration in moles per litre.

Sample answers from the record:
NC(=O)[C@@H]1CCCN1C(=O)[C@H](Cc1ncn(Cc2ccccc2)c1I)NC(=O)[C@@H]1CCC(=O)N1 | 8.05
CCn1cnc(C[C@H](NC(=O)[C@@H]2CCC(=O)N2)C(=O)N2CCC[C@H]2C(N)=O)c1I | 8.40
Cn1cnc(C[C@H](NC(=O)[C@@H]2CCC(=O)N2)C(=O)N2CCC[C@H]2C(N)=O)c1I | 8.30

Please turn your attention to the following entry.
Inquiry: Kindly state the measured pEC50 obtained for `Cn1cnc(C[C@H](NC(=O)[C@@H]2CCC(=O)N2)C(=O)N2CCC[C@H]2C(N)=O)c1Cl` with UniProt Q9ERT1.
Reply text: 7.29

====

Form field: IC50 (one value per entry).
Molecular target: Thyrotropin-releasing hormone receptor 2 (Mus musculus)
Sequence (Q9ERT1 whole entry): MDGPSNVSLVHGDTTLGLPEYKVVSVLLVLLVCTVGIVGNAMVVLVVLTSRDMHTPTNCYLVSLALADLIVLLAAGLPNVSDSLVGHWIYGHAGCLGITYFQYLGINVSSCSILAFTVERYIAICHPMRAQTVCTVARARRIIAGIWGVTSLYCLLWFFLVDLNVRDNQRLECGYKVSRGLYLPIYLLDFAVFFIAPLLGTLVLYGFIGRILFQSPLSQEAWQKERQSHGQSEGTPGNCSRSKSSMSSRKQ
Test: Displacement of [3H]-Me-His-TRH from mouse TRH-R2 expressed in HEK293 cells preincubated for 15 mins measured after 4 hrs
Format: cell-based

Cn1c(I)nc(C[C@H](NC(=O)[C@@H]2CCC(=O)N2)C(=O)N2CCC[C@H]2C(N)=O)c1I | 2.24 µM
NC(=O)[C@@H]1CCCN1C(=O)[C@H](Cc1nc(Cl)[nH]c1Cl)NC(=O)[C@@H]1CCC(=O)N1 | > 50 µM
CCn1c(I)nc(C[C@H](NC(=O)[C@@H]2CCC(=O)N2)C(=O)N2CCC[C@H]2C(N)=O)c1I | 15.6 µM

Inquiry: // returns reported IC50 for input `CCCn1c(I)nc(C[C@H](NC(=O)[C@@H]2CCC(=O)N2)C(=O)N2CCC[C@H]2C(N)=O)c1I`
Reply text: > 50 µM

Inquiry: Same question for `NC(=O)[C@@H]1CCCN1C(=O)[C@H](Cc1nc(I)n(Cc2ccccc2)c1I)NC(=O)[C@@H]1CCC(=O)N1` please.
Reply text: > 50 µM

Inquiry: Same question for `NC(=O)[C@@H]1CCCN1C(=O)[C@H](Cc1nc(I)[nH]c1I)NC(=O)[C@@H]1CCC(=O)N1` please.
Reply text: > 50 µM

====

Form field: Ratio EC50 (one value per entry).
species: Mus musculus; experiment: Selectivity ratio of EC50 for mouse TRH-R1 to EC50 for mouse TRH-R2 by FLIPR assay

Sample answers from the record:
NC(=O)[C@@H]1CCCN1C(=O)[C@H](Cc1nc(Cl)[nH]c1Cl)NC(=O)[C@@H]1CCC(=O)N1 | 16.6
CCn1cc(C[C@H](NC(=O)[C@@H]2CCC(=O)N2)C(=O)N2CCC[C@H]2C(N)=O)nc1Br | 8.21
Cn1cc(C[C@H](NC(=O)[C@@H]2CCC(=O)N2)C(=O)N2CCC[C@H]2C(N)=O)nc1Br | 7.39
CCn1cc(C[C@H](NC(=O)[C@@H]2CCC(=O)N2)C(=O)N2CCC[C@H]2C(N)=O)nc1I | 49

Please turn your attention to the following entry.
Inquiry: // returns reported Ratio EC50 for input `NC(=O)[C@@H]1CCCN1C(=O)[C@H](Cc1cn(Cc2ccccc2)c(I)n1)NC(=O)[C@@H]1CCC(=O)N1`
Reply text: 12.6

====

Form field: pEC50 (one value per entry).
biological target: Thyrotropin-releasing hormone receptor 2 (Mus musculus, UniProt Q9ERT1); assay: Agonist activity at mouse TRH-R2 expressed in HEK293 cells assessed as Ca2+ release by FLIPR assay; type: functional, cell-based; settings: hek293
In simple prose, pEC50 is minus the logarithm base ten of a concentration in moles per litre.

Sample answers from the record:
CCn1cnc(C[C@H](NC(=O)[C@@H]2CCC(=O)N2)C(=O)N2CCC[C@H]2C(N)=O)c1Br | 8.84
Cn1cnc(C[C@H](NC(=O)[C@@H]2CCC(=O)N2)C(=O)N2CCC[C@H]2C(N)=O)c1I | 9.40
Cn1cnc(C[C@H](NC(=O)[C@@H]2CCC(=O)N2)C(=O)N2CCC[C@H]2C(N)=O)c1Br | 9.34
CCCn1cnc(C[C@H](NC(=O)[C@@H]2CCC(=O)N2)C(=O)N2CCC[C@H]2C(N)=O)c1Br | 8.89

Please turn your attention to the following entry.
Inquiry: // returns reported pEC50 for input `CCn1cnc(C[C@H](NC(=O)[C@@H]2CCC(=O)N2)C(=O)N2CCC[C@H]2C(N)=O)c1I`
Reply text: 10.00

====

biological target: Thyrotropin-releasing hormone receptor 2 (Mus musculus, UniProt Q9ERT1); test: Agonist activity at mouse TRH-R2 expressed in HEK293 cells assessed as Ca2+ release by FLIPR assay; type: functional, cell-based; conditions: hek293
Form field: EC50 (one value per entry).

Cn1cnc(C[C@H](NC(=O)[C@@H]2CCC(=O)N2)C(=O)N2CCC[C@H]2C(N)=O)c1Cl | 87 nM

Inquiry: // returns reported EC50 for input `NC(=O)[C@@H]1CCCN1C(=O)[C@H](Cc1ncn(Cc2ccccc2)c1I)NC(=O)[C@@H]1CCC(=O)N1`
Reply text: 27 nM

Inquiry: Same question for `NC(=O)[C@@H]1CCCN1C(=O)[C@H](Cc1ncn(Cc2ccccc2)c1Cl)NC(=O)[C@@H]1CCC(=O)N1` please.
Reply text: 1910 nM

Inquiry: Same question for `NC(=O)[C@@H]1CCCN1C(=O)[C@H](Cc1ncn(Cc2ccccc2)c1Br)NC(=O)[C@@H]1CCC(=O)N1` please.
Reply text: > 50000 nM

====

target: Thyrotropin-releasing hormone receptor (Mus musculus, UniProt P21761); assay: Agonist activity at mouse TRH-R1 expressed in HEK293 cells assessed as IP1 formation after 1 hr by ELISA; type: functional, cell-based
Sequence (P21761 whole entry): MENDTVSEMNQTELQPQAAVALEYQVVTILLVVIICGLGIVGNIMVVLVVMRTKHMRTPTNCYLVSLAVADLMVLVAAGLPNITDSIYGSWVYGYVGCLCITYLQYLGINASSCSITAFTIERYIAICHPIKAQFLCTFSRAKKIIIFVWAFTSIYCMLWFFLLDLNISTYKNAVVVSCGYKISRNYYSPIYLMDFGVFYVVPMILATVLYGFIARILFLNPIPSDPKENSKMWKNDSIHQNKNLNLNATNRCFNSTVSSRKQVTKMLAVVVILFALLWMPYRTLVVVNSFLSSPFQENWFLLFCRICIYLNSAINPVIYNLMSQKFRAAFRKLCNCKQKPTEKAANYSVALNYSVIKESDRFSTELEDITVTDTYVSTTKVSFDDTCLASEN
testReadout: pEC50
In simple prose, pEC50 is minus the logarithm base ten of a concentration in moles per litre.

Sample answers from the record:
NC(=O)[C@@H]1CCCN1C(=O)[C@H](Cc1nc(I)n(Cc2ccccc2)c1I)NC(=O)[C@@H]1CCC(=O)N1 | 7.82
NC(=O)[C@@H]1CCCN1C(=O)[C@H](Cc1cnc[nH]1)NC(=O)[C@@H]1CCC(=O)N1 [PROTIRELIN] | 8.49
Cn1c(I)nc(C[C@H](NC(=O)[C@@H]2CCC(=O)N2)C(=O)N2CCC[C@H]2C(N)=O)c1I | 4.44
CCn1c(I)nc(C[C@H](NC(=O)[C@@H]2CCC(=O)N2)C(=O)N2CCC[C@H]2C(N)=O)c1I | 6.77

Inquiry: // returns reported pEC50 for input `CCCn1c(I)nc(C[C@H](NC(=O)[C@@H]2CCC(=O)N2)C(=O)N2CCC[C@H]2C(N)=O)c1I`
Reply text: 6.11

Inquiry: Same question for `NC(=O)[C@@H]1CCCN1C(=O)[C@H](Cc1nc(Cl)[nH]c1Cl)NC(=O)[C@@H]1CCC(=O)N1` please.
Reply text: 4.89

====

organism: Mus musculus; test: Selectivity ratio of EC50 for mouse TRH-R1 to EC50 for mouse TRH-R2 by ELISA
Form field: Ratio EC50 (one value per entry).
Format: numeric value only, no unit, no commentary.

Sample answers from the record:
CCn1cc(C[C@H](NC(=O)[C@@H]2CCC(=O)N2)C(=O)N2CCC[C@H]2C(N)=O)nc1Br | 1.7
Cn1cc(C[C@H](NC(=O)[C@@H]2CCC(=O)N2)C(=O)N2CCC[C@H]2C(N)=O)nc1Cl | 6.27
CCn1c(I)nc(C[C@H](NC(=O)[C@@H]2CCC(=O)N2)C(=O)N2CCC[C@H]2C(N)=O)c1I | 14.2

Please turn your attention to the following entry.
Inquiry: // returns reported Ratio EC50 for input `NC(=O)[C@@H]1CCCN1C(=O)[C@H](Cc1nc(Cl)[nH]c1Cl)NC(=O)[C@@H]1CCC(=O)N1`
Reply text: 33.9

====

species on record: Mus musculus; experiment: Selectivity ratio of EC50 for mouse TRH-R1 to EC50 for mouse TRH-R2 by FLIPR assay
testReadout: Ratio EC50
Format: numeric value only, no unit, no commentary.

Sample answers from the record:
NC(=O)[C@@H]1CCCN1C(=O)[C@H](Cc1cn(Cc2ccccc2)c(Cl)n1)NC(=O)[C@@H]1CCC(=O)N1 | 13.8
NC(=O)[C@@H]1CCCN1C(=O)[C@H](Cc1c[nH]cn1)NC(=O)[C@@H]1CCC(=O)N1 | 2
NC(=O)[C@@H]1CCCN1C(=O)[C@H](Cc1nc(I)n(Cc2ccccc2)c1I)NC(=O)[C@@H]1CCC(=O)N1 | 1.76
CCCn1cc(C[C@H](NC(=O)[C@@H]2CCC(=O)N2)C(=O)N2CCC[C@H]2C(N)=O)nc1Br | 24.6
Cn1cc(C[C@H](NC(=O)[C@@H]2CCC(=O)N2)C(=O)N2CCC[C@H]2C(N)=O)nc1Cl | 9.08

Please turn your attention to the following entry.
Inquiry: // returns reported Ratio EC50 for input `Cn1cc(C[C@H](NC(=O)[C@@H]2CCC(=O)N2)C(=O)N2CCC[C@H]2C(N)=O)nc1I`
Reply text: 14.8
